These measurements were taken from paper PMC3458020.

System: N. gonorrhoeae FA6140
protocol_summary: MIC on GCB agar plates, strain FA6140
Format: cell-based
condition_label: Neisseria gonorrhoeae; penicillin-resistant, cephalosporin-susceptible strain FA6140; read-out: MIC FA6140
Exercise: for every item that follows, state its recorded MIC.
A complete answer gives the number followed by the unit.

Requested read-out: MIC. Entry: CN1C(=O)/C(=C2\SC(=S)NC2=O)c2cc(Br)ccc21
8 µg/mL

Entry O=S(=O)(Nc1ccc(O)c2ccccc12)c1cccc2ccccc12 please
16 µg/mL

Entry CCc1ccc(O)c(/N=C/c2cc(I)cc(I)c2O)c1 please
16 µg/mL

Entry CCc1ccc(S(=O)(=O)Nc2ccc(O)c3ccccc23)cc1 please
16 µg/mL

Entry O=Cc1cc(Cc2ccccc2)cc([N+](=O)[O-])c1O please
16 µg/mL

Entry Sc1nnc(-c2ccc(Cl)cc2Cl)n1/N=C/C=C/c1ccco1 please
32 µg/mL
